Test system: 518A2
Assay: Induction of apoptosis in human 518A2 cells assessed as appearance of intact mitochondria in cytosol at 5 uM after 6 hrs using JC1 dye relative to control
Assay type: functional
For each of the compounds below, state its Activity.
Numbers only, in %.

Recorded Activity (compound CCCCCCCCCCCCCCCCC(=O)N/N=C(\CO)[C@]1(O)Cc2c(O)c3c(c(O)c2[C@@H](O[C@H]2C[C@H](N)[C@H](O)[C@H](C)O2)C1)C(=O)c1c(OC)cccc1C3=O.Cl [DOXORUBICIN HEPTADECANOYL HYDRAZONE] ): 113

The compound listed as "COc1cccc2c1C(=O)c1c(O)c3c(c(O)c1C2=O)C[C@@](O)(/C(CO)=N/NC(=O)CCCCCCCCCCC(=O)O[C@@H]1C[C@H](C)CC[C@H]1C(C)C)C[C@@H]3O[C@H]1C[C@H](N)[C@H](O)[C@H](C)O1.Cl" shows Activity equal to 108

Others:
Activity reading for "CCCCC/C=C\C/C=C\CCCCCCCC(=O)N/N=C(\CO)[C@]1(O)Cc2c(O)c3c(c(O)c2[C@@H](O[C@H]2C[C@H](N)[C@H](O)[C@H](C)O2)C1)C(=O)c1c(OC)cccc1C3=O.Cl" : 80
